Cited source for all entries: patent US20240174690A1

Test: Solubility measurement (DMSO solution method), McIlvaine buffer pH 4.5 or 6.8
Assay type: physicochemical
Conditions: aqueous buffer, kinetic from dmso stock; McIlvaine buffer pH 6.8; DMSO stock diluted to 250 μM; 24 h shaking at ambient temperature; read-out: solubility pH 6.8
Description: The DMSO solution is diluted with an aqueous medium (Mcllvaine buffer with pH=4.5 or 6.8) to a final concentration of 250 μM. After 24 h of shaking at ambient temperature a potentially formed precipitate is removed by filtration. The concentration of the test compound in the filtrate is determined by LC-UV methods by calibrating the signal to the signal of a reference solution with complete dissolution of the test compound in acetonitrile/water (1:1) with known concentration.
If the reported solubility at 24 h equals or exceeds 30 µg/mL, assign YES. If not, assign NO.

[[record]]
smilesstr = "C[C@H](Oc1cc(N2C[C@H](C)NC3(CC3)C2)nc(-c2onc3c2CCC[C@@]32CCCc3sc(N)c(C#N)c32)n1)[C@@H]1CCCN1C"
group = "YES"

[[record]]
smilesstr = "C[C@H]1CNCCCN1c1cc(-c2ccn(C)n2)nc(-c2noc3c2CCC[C@@]32CCCc3sc(N)c(C#N)c32)n1"
group = "NO"

[[record]]
smilesstr = "C[C@H](Oc1cc(-n2ccc(Br)n2)nc(-c2noc3c2CCC[C@@]32CCCc3sc(N)c(C#N)c32)n1)[C@@H]1CCCN1C"
group = "NO"

[[record]]
smilesstr = "C[C@H](Oc1cc(N2CCNC[C@]23CCOC3)nc(-c2noc3c2CCC[C@@]32CCCc3sc(N)c(C#N)c32)n1)[C@@H]1CCCN1C"
group = "YES"

[[record]]
smilesstr = "C[C@H](NC(=O)c1ccn(-c2cc(O[C@@H](C)[C@@H]3CCCN3C)nc(-c3noc4c3CCC[C@@]43CCCc4sc(N)c(C#N)c43)n2)n1)c1ccccn1"
group = "NO"

[[record]]
smilesstr = "C[C@H](Oc1cc(N2CC[C@H](N(C)C)C2)nc(-c2noc3c2CCC[C@@]32CCCc3sc(N)c(C#N)c32)n1)[C@@H]1C[C@@H](F)CN1C"
group = "YES"

[[record]]
smilesstr = "C[C@H](O)Cn1ccc(-c2cc(O[C@@H](C)[C@@H]3CCCN3C)nc(-c3onc4c3CCC[C@@]43CCCc4sc(N)c(C#N)c43)n2)n1"
group = "YES"

[[record]]
smilesstr = "C[C@H](Oc1cc(N2CCNC3(CC3)C2)nc(-c2noc3c2CCC[C@@]32CCCc3sc(N)c(C#N)c32)n1)[C@@H]1C[C@@H](F)CN1C"
group = "YES"

[[record]]
smilesstr = "C[C@H](Oc1cc(N2CCN(C)C3(COC3)C2)nc(-c2noc3c2CCC[C@@]32CCCc3sc(N)c(C#N)c32)n1)[C@@H]1C[C@@H](F)CN1C"
group = "NO"

[[record]]
smilesstr = "CO[C@@H]1C[C@@H]([C@H](C)Oc2cc(N3CCNC4(CC4)C3)nc(-c3noc4c3CCC[C@@]43CCCc4sc(N)c(C#N)c43)n2)N(C)C1"
group = "YES"

[[record]]
smilesstr = "C[C@H](Oc1cc(N2CCNC3(COC3)C2)nc(-c2noc3c2CCC[C@@]32CCCc3sc(N)c(C#N)c32)n1)[C@@H]1CCCN1C"
group = "YES"

[[record]]
smilesstr = "C[C@H](Oc1cc(-c2ccn(C)n2)nc(-c2noc3c2CCC[C@@]32CCCc3sc(N)c(C#N)c32)n1)[C@@H]1C[C@@H](F)CN1C"
group = "NO"

[[record]]
smilesstr = "C[C@H](Oc1cc(-n2cc(C3CC3)nn2)nc(-c2noc3c2CCC[C@@]32CCCc3sc(N)c(C#N)c32)n1)[C@@H]1CCCN1C"
group = "NO"

[[record]]
smilesstr = "C[C@H](Oc1cc(-c2cccc(C(N)=O)c2)nc(-c2noc3c2CCC[C@@]32CCCc3sc(N)c(C#N)c32)n1)[C@@H]1CCCN1C"
group = "NO"

[[record]]
smilesstr = "C[C@H](Oc1cc(N2CCN(C)C2=O)nc(-c2noc3c2CCC[C@@]32CCCc3sc(N)c(C#N)c32)n1)[C@@H]1CCCN1C"
group = "YES"

[[record]]
smilesstr = "CO[C@@H]1C[C@@H]([C@H](C)Oc2cc(N3CCN(C)C4(CC4)C3)nc(-c3noc4c3CCC[C@@]43CCCc4sc(N)c(C#N)c43)n2)N(C)C1"
group = "YES"

[[record]]
smilesstr = "COCCNC(=O)c1ccn(-c2cc(O[C@@H](C)[C@@H]3[C@@H](OC)CCN3C)nc(-c3noc4c3CCC[C@@]43CCCc4sc(N)c(C#N)c43)n2)n1"
group = "NO"

[[record]]
smilesstr = "C[C@H](Oc1cc(N2C[C@H](C)NC3(CC3)C2)nc(-c2noc3c2CCC[C@@]32CCCc3sc(N)c(C#N)c32)n1)[C@@H]1C[C@@H](F)CN1C"
group = "NO"

[[record]]
smilesstr = "CC(C)N1CCCN(c2cc(-c3ccn(C)n3)nc(-c3noc4c3CCC[C@@]43CCCc4sc(N)c(C#N)c43)n2)[C@@H](C)C1"
group = "NO"

[[record]]
smilesstr = "C[C@H](Oc1cc(-c2ccc(N)nc2)nc(-c2noc3c2CCC[C@@]32CCCc3sc(N)c(C#N)c32)n1)[C@@H]1CCCN1C"
group = "NO"

[[record]]
smilesstr = "C[C@H](Oc1cc(N2CCN(C)C3(COC3)C2)nc(-c2noc3c2CCC[C@@]32CCCc3sc(N)c(C#N)c32)n1)[C@@H]1CCCN1C"
group = "YES"

[[record]]
smilesstr = "C[C@H](Oc1cc(-c2cnn(C)c2)nc(-c2noc3c2CCC[C@@]32CCCc3sc(N)c(C#N)c32)n1)[C@@H]1CCCN1C"
group = "NO"

[[record]]
smilesstr = "C[C@H](Oc1cc(-c2ccn(C[C@H]3CCOC3)n2)nc(-c2noc3c2CCC[C@@]32CCCc3sc(N)c(C#N)c32)n1)[C@@H]1CCCN1C"
group = "NO"

[[record]]
smilesstr = "C[C@H](Oc1cc(-n2cc3c(n2)CNC3)nc(-c2noc3c2CCC[C@@]32CCCc3sc(N)c(C#N)c32)n1)[C@@H]1CCCN1C"
group = "YES"

[[record]]
smilesstr = "CNC1CCN(c2cc(O[C@@H](C)[C@@H]3CCCN3C)nc(-c3noc4c3CCC[C@@]43CCCc4sc(N)c(C#N)c43)n2)CC1"
group = "YES"


----------
Biological target: CYP3A4 (Homo sapiens (Human), UniProt P08684)
Sequence (P08684 whole entry): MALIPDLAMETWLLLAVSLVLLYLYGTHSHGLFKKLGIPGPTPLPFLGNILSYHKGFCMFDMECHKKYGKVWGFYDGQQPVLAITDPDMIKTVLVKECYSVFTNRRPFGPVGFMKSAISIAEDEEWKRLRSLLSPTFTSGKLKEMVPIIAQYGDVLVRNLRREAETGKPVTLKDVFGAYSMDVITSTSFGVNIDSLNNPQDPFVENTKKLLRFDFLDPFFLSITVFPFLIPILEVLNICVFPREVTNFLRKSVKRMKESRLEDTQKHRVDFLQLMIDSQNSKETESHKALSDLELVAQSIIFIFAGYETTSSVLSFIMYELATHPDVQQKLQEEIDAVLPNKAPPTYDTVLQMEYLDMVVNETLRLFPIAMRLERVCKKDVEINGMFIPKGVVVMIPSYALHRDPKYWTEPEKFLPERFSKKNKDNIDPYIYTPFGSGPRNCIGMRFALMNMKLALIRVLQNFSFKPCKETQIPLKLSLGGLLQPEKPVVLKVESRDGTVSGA
Assay: Mechanism based inhibition of CYP3A4 assay (MBI 3A4)
Assay type: in vitro ADME
Conditions: hydroxy-midazolam formation after 30 min vs 0 min preincubation, 25 uM, human liver microsomes
Method: After preincubation, the incubate is diluted 1:10 and the substrate midazolam is added for the main incubation (15 min). The main incubation is quenched with acetonitrile and the formation of hydroxy-midazolam is quantified via LC/MS-MS. The formation of hydroxy-midazolam from the 30 min preincubation relative to the formation from the 0 min preincubation is used as a readout. […]
Below: a set of entries, each annotated with reported MBI 3A4.
valueType: MBI 3A4 (%)

[[record]]
smilesstr = "C[C@H](Oc1cc(-c2cc[nH]n2)nc(-c2noc3c2CCC[C@@]32CCCc3sc(N)c(C#N)c32)n1)[C@@H]1CCCN1C"
valuetype = "MBI 3A4"
unitspec = "%"
resultvalue = 79

[[record]]
smilesstr = "Cc1nc(-c2cc(O[C@@H](C)[C@@H]3CCCN3C)nc(-c3noc4c3CCC[C@@]43CCCc4sc(N)c(C#N)c43)n2)cs1"
valuetype = "MBI 3A4"
unitspec = "%"
resultvalue = 53

[[record]]
smilesstr = "C[C@H](Oc1cc(N2Cc3cnn(C)c3C2)nc(-c2noc3c2CCC[C@@]32CCCc3sc(N)c(C#N)c32)n1)[C@@H]1CCCN1C"
valuetype = "MBI 3A4"
unitspec = "%"
resultvalue = 74

[[record]]
smilesstr = "C[C@H](Oc1cc(N2CCN(C)C3(COC3)C2)nc(-c2noc3c2CCC[C@@]32CCCc3sc(N)c(C#N)c32)n1)[C@@H]1CCCN1C"
valuetype = "MBI 3A4"
unitspec = "%"
resultvalue = 70

[[record]]
smilesstr = "Cc1nc(-c2cc(O[C@@H](C)[C@@H]3CCCN3C)nc(-c3onc4c3CCC[C@@]43CCCc4sc(N)c(C#N)c43)n2)cs1"
valuetype = "MBI 3A4"
unitspec = "%"
resultvalue = 73

[[record]]
smilesstr = "CO[C@@H]1C[C@@H]([C@H](C)Oc2cc(N3CCN(C)C4(COC4)C3)nc(-c3noc4c3CCC[C@@]43CCCc4sc(N)c(C#N)c43)n2)N(C)C1"
valuetype = "MBI 3A4"
unitspec = "%"
resultvalue = 49

[[record]]
smilesstr = "C[C@H](Oc1cc(-c2ccn(C[C@H]3CCOC3)n2)nc(-c2noc3c2CCC[C@@]32CCCc3sc(N)c(C#N)c32)n1)[C@@H]1CCCN1C"
valuetype = "MBI 3A4"
unitspec = "%"
resultvalue = 74

[[record]]
smilesstr = "C[C@H](Oc1cc(N2C[C@H](C)N(C)[C@@H](C)C2)nc(-c2onc3c2CCC[C@@]32CCCc3sc(N)c(C#N)c32)n1)[C@@H]1CCCN1C"
valuetype = "MBI 3A4"
unitspec = "%"
resultvalue = 64

[[record]]
smilesstr = "C[C@H](Oc1cc(N2CCN(C)C3(COC3)C2)nc(-c2noc3c2CCC[C@@]32CCCc3sc(N)c(C#N)c32)n1)[C@@H]1C[C@@H](F)CN1C"
valuetype = "MBI 3A4"
unitspec = "%"
resultvalue = 55

[[record]]
smilesstr = "C[C@H](Oc1cc(N2CCN(C)C3(CC3)C2)nc(-c2noc3c2CCC[C@@]32CCCc3sc(N)c(C#N)c32)n1)[C@@H]1C[C@@H](F)CN1C"
valuetype = "MBI 3A4"
unitspec = "%"
resultvalue = 42

[[record]]
smilesstr = "C[C@H](Oc1cc(-n2cc(C3CC3)nn2)nc(-c2noc3c2CCC[C@@]32CCCc3sc(N)c(C#N)c32)n1)[C@@H]1CCCN1C"
valuetype = "MBI 3A4"
unitspec = "%"
resultvalue = 45

[[record]]
smilesstr = "C[C@H](Oc1cc(-n2cncn2)nc(-c2onc3c2CCC[C@@]32CCCc3sc(N)c(C#N)c32)n1)[C@@H]1CCCN1C"
valuetype = "MBI 3A4"
unitspec = "%"
resultvalue = 58

[[record]]
smilesstr = "C[C@H](Oc1cc(N2CCN(C)CC2)nc(-c2noc3c2CCC[C@@]32CCCc3sc(N)c(C#N)c32)n1)[C@@H]1CCCN1C"
valuetype = "MBI 3A4"
unitspec = "%"
resultvalue = 88

